Cited source: ChEMBL document CHEMBL5108019

Target: Transforming growth factor beta-1 proprotein/Mothers against decapentaplegic homolog 3 (Mus musculus, UniProt P04202+Q8BUN5)
Sequence (P04202 279-390 limits assumed): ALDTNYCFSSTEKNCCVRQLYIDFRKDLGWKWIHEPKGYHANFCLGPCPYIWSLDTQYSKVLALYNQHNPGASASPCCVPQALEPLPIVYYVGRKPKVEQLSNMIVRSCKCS
Sequence (Q8BUN5 2-425 limits assumed): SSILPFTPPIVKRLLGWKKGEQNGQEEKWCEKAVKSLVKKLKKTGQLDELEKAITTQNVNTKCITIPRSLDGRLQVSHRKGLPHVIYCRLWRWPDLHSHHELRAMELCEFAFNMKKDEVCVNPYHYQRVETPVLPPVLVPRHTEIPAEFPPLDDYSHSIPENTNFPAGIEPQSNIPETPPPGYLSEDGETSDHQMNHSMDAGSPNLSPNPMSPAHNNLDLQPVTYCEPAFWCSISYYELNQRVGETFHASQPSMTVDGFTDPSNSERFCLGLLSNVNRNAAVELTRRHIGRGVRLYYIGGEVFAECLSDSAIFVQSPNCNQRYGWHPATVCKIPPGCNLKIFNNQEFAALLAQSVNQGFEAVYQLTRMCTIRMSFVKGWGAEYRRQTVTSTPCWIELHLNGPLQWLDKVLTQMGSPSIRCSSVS
Test: Inhibition of TGF-beta1/Smad3 signalling in TGF-beta1 treated mouse NIH3T3 cells transfected with (CAGA)12-Lux reporter gene incubated for 18 hrs by luciferase based analysis
Outcome Measure: pIC50
On this scale, pIC50 is minus log10 of a concentration expressed in M (mol/L).

Recorded pIC50 (compound C=C[C@]1(C)C[C@@H](O)[C@]2(C)[C@H](C)CC[C@]3(C/C(=C\c4ccc(C(=O)NC5CCCCC5)cc4)C(=O)[C@H]32)[C@@H](C)[C@@H]1O ): 4.22

----------
Assay: Clearance in Sprague-Dawley rat at 100 mg/kg, po measured for 18 hrs by LC-MS/MS analysis
Format: ADME, organism-based
Settings: in vivo
Outcome Measure: CL/F (mL/min)
Give the value in mL/min but do not write mL/min after it.

Measured CL/F, C=C[C@]1(C)C[C@@H](O)[C@]2(C)[C@H](C)CC[C@]3(C/C(=C\c4ccc(C(=O)NC5CCCCC5)cc4)C(=O)[C@H]32)[C@@H](C)[C@@H]1O : 7.62
